System: S. typhimurium s5 (J. Weiser)
CONDITION_DETAILS: ¼ Muller-Hinton medium
MEASURED_ENDPOINT: MIC S. typhimurium s5 (J. Weiser) (µg/mL)
Report only the number, with the unit µg/mL understood.

These solved cases illustrate the format of a correct answer.
SUBSTANCE	DISPLAY_UNIT	MIC S. typhimurium s5 (J. Weiser)
H-GKPRPYSPRPTSHPRPIRV-OH [compound 89]	µg/mL	1
H-GNNRPVYIPQPRPPHPRL-OH [compound 87]	µg/mL	0.5
H-VDKPPYLPRPRPPRRIYNR-NH2 [compound 18]	µg/mL	4

--- query ---
# MIC S. typhimurium s5 (J. Weiser) lookup, item H-VDKPPYLPRPRPPRRIYNNR-NH2 [compound 15]
8
